Source listed as PubChem BioAssay (NCI).

test system: SK-MEL-2 melanoma; assay: NCI tumour cell line growth inhibition, 48 h
Where a SMILES comes first, the peptide text is derived from it. [ ]: non-standard residue; d: D form. Ac5c = NC1(C(=O)O)CCCC1
parameter: TGI

CN(N=O)C(=O)N(N)CCCCC(NC(=O)OCc1ccccc1)C(=O)OCc1ccccc1 (stereo unspecified)    > 100 µM
Cc1cc(I)cc(CN(C)CCN(C)C)c1O    44.2 µM
CN(CC(=O)O)c1ncc2c(n1)-c1ccccc1OC2c1ccccc1 (stereo unspecified)    > 100 µM
CCOC(=O)c1c2c(n(Cc3ccc(Cl)cc3Cl)c1C)-c1nc(Cc3ccccc3)[nH]c1C(=O)C2=O    9.2 µM
N#CCCN(CCNc1ccccc1)C(=O)Nc1ccc(NC(=O)N(CCC#N)CCNc2ccccc2)cc1    > 100 µM
NCC(=O)NC1(C(=O)O)CCCC1 (H-Gly-[Ac5c]-OH)    > 100 µM
O=C(CSCC(=O)N/N=C/c1cccc(C(F)(F)F)c1)N/N=C/c1cccc(C(F)(F)F)c1    > 100 µM
Oc1ccc(/C=C/c2ccc(O)cc2)cc1    > 89.2 µM

Need TGI for each of these compounds.
1. Cc1cc([N+](=O)[O-])c(C)c2c1[nH]c1ccc(O)cc12
2. Nc1ccc2nc3ccc(=O)cc-3n(-c3ccccc3)c2c1
3. Cc1ccc(Nc2nc3c(s2)C(=O)c2ccccc2C3=O)cc1

["> 100 µM", "> 100 µM", "3.94 µM"]

---

system: KM12 colon; assay: NCI tumour cell line growth inhibition, 48 h
parameter: GI50

Examples with answers:
Cc1nn(-c2ccccc2)c(-n2ccnc2)c1/C=N/Nc1nc(-c2ccc(Cl)c(Cl)c2)cs1    7890 nM
Cn1cc(C2=C(c3cn(C)c4cc(C(=O)O)ccc34)C(=O)NC2=O)c2ccccc21    > 25000 nM
CN1CCN(Cc2ccc(NC(=O)c3nc4ccc5[nH]ncc5c4c4c3CCCC4)cc2C(F)(F)F)CC1    860 nM
CNCCCNc1c2cc(OC)ccc2nc2cccc([N+](=O)[O-])c12    43.1 nM
CCSc1ccc2c(c1)N(CCCN1CCN(C)CC1)c1ccccc1S2    1870 nM
COC(=O)c1c2c(c(C)[n+]([O-])c1C)C(=O)C(NCc1cccc(Cl)c1)=CC2=O    1560 nM

Need GI50 for each of these molecules.
1. CCCCC/C=C/C(=O)CCc1ccc(O)c(OC)c1
2. COC(=O)c1cc2cc(-c3ccc(OC)cc3)cnc2[nH]1
3. Nc1nc2cc(-c3ccc4ncc(C(=O)N5CCOCC5)n4c3)ccc2o1
4. CCN(CC)CCn1c(N)c(-c2nc3ccccc3n2C)c2nc(C#N)c(C#N)nc21
5. COC(=O)[C@@H]1CCCN1C(=O)[C@@H]1CCCN1C(=O)[C@H](Cc1ccccc1)NC(=S)Nc1cc(C(F)(F)F)cc(C(F)(F)F)c1

3090 nM
418 nM
14400 nM
5650 nM
3930 nM

---

Can you tell me GI50 for the items I'm about to list?
system: MALME-3M melanoma; assay: NCI tumour cell line growth inhibition, 48 h

C=C(C)[C@@H]1C/C=C(\COC(=O)[C@H](OC(C)=O)C(NC(=O)c2ccccc2)c2ccccc2)CC[C@H]2O[C@]2(C)CC/C=C(\C)CC1 (some centres undefined)    14.3 µM
CSc1nn2c(-c3ccc4ccccc4c3)ccnc2c1C#N    0.663 µM

Need GI50 for each of these molecules.
1. CCOC(=O)c1c2c(n(Cc3ccc(Cl)cc3Cl)c1C)-c1nc(Cc3ccccc3)[nH]c1C(=O)C2=O
2. Nc1nc2cc(-c3ccc4ncc(C(=O)N5CCOCC5)n4c3)ccc2o1
3. CCOC(=O)c1ccc(NC(=O)Nc2nccs2)cc1
4. COc1cc(-c2cncn2-c2ccc(-c3nc4ccc(F)cc4s3)cc2)ccc1F

["2 µM", "1.23 µM", "1.24 µM", "11.1 µM"]

Need GI50 for each of these molecules.
1. CCN(CCCNC(=O)Cc1cc(=O)oc2cc(N(C)C)ccc12)CCNc1ccnc2cc(Cl)ccc12
2. O=CC(NC(=O)N(CCCl)N=O)C(O)C(O)C(O)CO (centres undefined)
3. NS(=O)(=O)N(c1cc(C(F)(F)F)cc(C(F)(F)F)c1)C1CCN(Cc2ccc(C(F)(F)F)cc2)CC1

1.83 µM
131 µM
7.47 µM

---

Can you tell me TGI for the items I'm about to list?
system: KM12 colon; assay: NCI tumour cell line growth inhibition, 48 h

Examples with answers:
Cc1cc(O)c(C=NC(=S)C(N)=S)c(=O)o1    > 100 µM
CS(=O)(=O)Nc1ccc(Nc2cc[nH]c3ccc4nccc4c23)cc1    28.1 µM
C#CC[N+](CCO)(CCO)CCCCCCCCCCCCCCCCCC    8.97 µM
COC(=O)[C@@H]1CCCN1C(=O)[C@@H]1CCCN1C(=O)[C@H](Cc1ccccc1)NC(=S)Nc1cc(C(F)(F)F)cc(C(F)(F)F)c1    > 100 µM

Need TGI for each of these compounds.
1. Clc1cccc(Cl)c1C(Nc1nncs1)Nc1nncs1
2. CSc1nc(-c2ccccc2)c(C#N)c(=O)[nH]1
3. COc1ccc(/C=N/Nc2nc(N)nc(N3CCCC3)c2C#N)cc1
4. CC1=C(C(=O)Nc2ccc(Cl)c(Cl)c2)C(c2ccccc2Cl)NC(=S)N1 (centres undefined)
5. CC1OC(=O)C2CC3CCCCC3C(/C=C/C3CCCC(C)N3C)C12 (centres undefined)

1. > 100 µM
2. > 100 µM
3. 70.8 µM
4. 17.6 µM
5. > 100 µM

---

Can you tell me TGI for the items I'm about to list?
system: SK-OV-3 ovarian; assay: NCI tumour cell line growth inhibition, 48 h

Examples with answers:
CCN(CC)c1ncnc2c1ncn2CCNC(CO)(CO)CO    > 100 µM
Fc1cc(-c2cc(-c3ccccc3)n[nH]2)c(Cl)cc1Cl    > 100 µM
COc1cc(OC)c(C#N)c(OC)c1C    > 100 µM
CSc1nn2c(-c3ccc4ccccc4c3)ccnc2c1C#N    > 100 µM
Cc1ccc2nc3n(c2c1)C(c1c(F)cccc1F)SC3 (stereo not drawn)    > 100 µM

Need TGI for each of these molecules.
1. COC(=O)CCC(C)[C@H]1CCC2C3C(C[C@H](OC(C)=O)[C@@]21C)[C@@]1(C)CCC2(C[C@H]1C[C@H]3OC(C)=O)OOC1(CCCCCCC1)OO2 (stereo partly drawn)
2. Nc1ccccc1C(=O)CCc1c[nH]c2ccccc12
3. O=C(Cc1ccc(OCc2cccc(Cl)c2)cc1)NO

["> 100 µM", "> 100 µM", "> 100 µM"]

Need TGI for each of these molecules.
1. CC1=C(C#N)C2C(=C(C)N1)C(N)=Nc1ccccc12 (stereo not drawn)
2. Cn1cc2ccccc2c1-c1nc(F)nc(Oc2ccc3c(c2)CC[C@@H]2C3CC[C@@]3(C)C2CC[C@@H]3O)n1 (stereo partly drawn)
3. Clc1ccc(C(c2ccc(Cl)cc2)c2cncnc2)cc1
4. C=CCOC1=CC(=O)c2ccccc2C1=O
5. CCN(CC)c1ccc2cc(C(=O)Nc3ccccc3OC)c(=N)oc2c1

> 100 µM
43.7 µM
33.4 µM
12.3 µM
> 100 µM

Need TGI for each of these molecules.
1. CCSc1ccc2c(c1)N(CCCN1CCN(C)CC1)c1ccccc1S2
2. COC(=O)[C@@H]1CCCN1C(=O)[C@@H]1CCCN1C(=O)[C@H](Cc1ccccc1)NC(=S)Nc1cc(C(F)(F)F)cc(C(F)(F)F)c1
3. COc1cccc(-n2ncc3c(N/N=C/c4ccc(F)cc4)ncnc32)c1
4. Cn1cnc([N+](=O)[O-])c1Sc1nc2ncccc2[nH]1
5. Cn1c2ccccc2c(=NNc2ccc(S(N)(=O)=O)cc2)c2ccccc21

1. 24 µM
2. > 100 µM
3. > 25 µM
4. > 100 µM
5. > 50 µM

---

test system: A549 NSCLC; assay: NCI tumour cell line growth inhibition, 48 h; in the data active = GI50 below about 0.43 µM; inactive = the rest
Respond using exactly one of the listed classes: 1 (active), 0 (inactive)

Recorded results for 8 compounds are shown here.
CNCCCNc1c2cc(OC)ccc2nc2cccc([N+](=O)[O-])c12    1
Cc1nn(-c2ccccc2)c(-n2ccnc2)c1/C=N/Nc1nc(-c2ccc(Cl)c(Cl)c2)cs1    0
COC(=O)c1cc2cc(-c3ccc(OC)cc3)cnc2[nH]1    0
C=C1C(=O)O[C@H]2[C@H]1CC/C(COC(=O)NCc1[nH]nc3ccccc13)=C\CC[C@@]1(C)O[C@@H]21    0
CSc1nn2c(-c3ccc4ccccc4c3)ccnc2c1C#N    0
COC(=O)c1c2c(c(C)[n+]([O-])c1C)C(=O)C(NCc1cccc(Cl)c1)=CC2=O    0
CC(C)(Oc1ccc(Cl)cc1)C(=O)NC1C2CC3CC1CC(NS(C)(=O)=O)(C3)C2 (stereo unspecified)    0
COc1ccc(/C=C2\CS(=O)(=O)C/C(=C\c3ccc(OC)cc3)C2=O)cc1    0

Please indicate how the test categorized CC[C@@]1(O)C(=O)OCc2c1cc1n(c2=O)Cc2cc3c([N+](=O)[O-])c(OC)ccc3nc2-1 .
1

Please indicate how the test categorized CN(CCO)C1CCN(c2ccc(Nc3ncc4c5ccnc(F)c5n(C5CCCC5)c4n3)nc2)CC1 .
0

Please indicate how the test categorized CC(C)(C)CC(C)(C)c1ccc(OCCSC(=N)N)cc1 .
0

Please indicate how the test categorized COc1cc(-c2cc(/C=C3\C(=O)Nc4ccc(Cl)cc43)[nH]n2)cc(OC)c1OC .
0

Please indicate how the test categorized C=C1C(=O)O[C@H]2[C@H]1CC/C(COC(=O)NCc1ccc(Cn3c(=O)sn(CCI)c3=O)cc1)=C\CC[C@@]1(C)O[C@@H]21 .
0

Please indicate how the test categorized CC(=O)OCC1OC(OC2CCCC[Si](c3ccccc3)(c3ccccc3)O2)C(OC(C)=O)C(OC(C)=O)C1OC(C)=O (stereo unspecified) .
0

Please indicate how the test categorized O=[N+]([O-])c1cccc2nc3ccccc3c(NCCO)c12 .
1

Please indicate how the test categorized CCCCC/C=C/C(=O)CCc1ccc(O)c(OC)c1 .
0
